Each record here notes measured CC50 at 96 h.
Test: Cytotoxicity against human MT4 cells after 4 days by MTT assay
Assay type: cell-based

>>> df
                                   molecule  readout_type  experimental_result
0  Cc1cn([C@H]2C[C@H](O)[C@](CO)(Sc3ccccc3)S2)c(=O)[nH]c1=O  CC50 at 96 h             > 100 µM
1  Cc1cn([C@H]2C[C@H](O)[C@@](C#N)(CO)S2)c(=O)[nH]c1=O  CC50 at 96 h             > 100 µM
2  Cc1cn([C@H]2C[C@H](O)[C@](CO)(N=[N+]=[N-])S2)c(=O)[nH]c1=O  CC50 at 96 h                40 µM

I am curious: what CC50 at 96 h value has been reported for C=CC[C@]1(CO)S[C@@H](n2cc(C)c(=O)[nH]c2=O)C[C@@H]1O ?
> 100 µM

I am curious: what CC50 at 96 h value has been reported for CO[C@]1(CO)S[C@@H](n2cc(C)c(=O)[nH]c2=O)C[C@@H]1O ?
> 100 µM

I am curious: what CC50 at 96 h value has been reported for C#C[C@]1(CO)S[C@@H](n2cc(C)c(=O)[nH]c2=O)C[C@@H]1O ?
> 100 µM

From: ChEMBL document CHEMBL1144022
